# Experimental Target: recombinant human cGAS (aa147-522) (Homo sapiens, UniProt Q8N884)
# Construct: recombinant human cGAS (aa147-522); His6-SUMO (cleaved yes); made in house; host or cells: E. coli BL21/pLys
# Sequence (Q8N884 147-522): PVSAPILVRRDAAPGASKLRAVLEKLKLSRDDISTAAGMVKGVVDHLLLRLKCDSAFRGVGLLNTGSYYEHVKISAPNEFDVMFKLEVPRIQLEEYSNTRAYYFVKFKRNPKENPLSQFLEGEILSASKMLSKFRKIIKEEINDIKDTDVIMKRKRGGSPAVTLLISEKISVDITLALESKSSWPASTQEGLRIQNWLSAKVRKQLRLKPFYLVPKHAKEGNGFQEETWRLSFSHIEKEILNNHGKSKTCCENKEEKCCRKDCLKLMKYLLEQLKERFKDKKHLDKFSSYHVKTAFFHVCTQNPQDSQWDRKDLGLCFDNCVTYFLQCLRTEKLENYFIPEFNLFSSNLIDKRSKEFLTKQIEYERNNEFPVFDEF
# Procedure Summary: In vitro inhibition assay of cGAS activity (ATP consumption, KinaseGlo Max)
# Type: biochemical
# Conditions Used: Table 3, read-out: cGAS Inhibition Results IC50
# Experimental: Expression and Purification of Recombinant cGAS Protein: cDNA encoding full-length or amino acids […] of human cGAS was inserted into a modified pET28a vector containing an in-frame His6-SUMO tag. The E. coli strain BL21/pLys harboring the plasmid was induced with 0.5 mM IPTG at 18° C. overnight. His6-SUMO tag was removed by a SUMO protease digestion following purification of the His6-SUMO-cGAS as described previously (Sun et al, 2013, Science 339, 786). […]
pIC50: −log10 of the molar value.
Quantity Name: pIC50

>  <Compound>
CCOC(=O)CNC(=O)C[C@@H]1[C@@H](O)CCN1c1cc(-n2ccnc2)c2ccc(Cl)c(Cl)c2n1 [I-787]

>  <Experimental Target>
recombinant human cGAS (aa147-522) (Homo sapiens, UniProt Q8N884)

>  <pIC50>
> 5.70

$$$$
>  <Compound>
COC(=O)C(O)[C@@H]1CCCN1c1cc(-n2ccnc2)c2ccc(Cl)c(Cl)c2n1 (stereo partly drawn) [I-662]

>  <Experimental Target>
recombinant human cGAS (aa147-522) (Homo sapiens, UniProt Q8N884)

>  <pIC50>
4.52 to 5.70

$$$$
>  <Compound>
O=C(O)CCOC[C@@H]1CCCN1c1cc(-n2ccnc2)c2ccc(Cl)c(Cl)c2n1 [I-664]

>  <Experimental Target>
recombinant human cGAS (aa147-522) (Homo sapiens, UniProt Q8N884)

>  <pIC50>
> 5.70

$$$$

Task: Any idea what pIC50 was measured for CN(Cc1cccc(CC(=O)O)c1)c1cc(-n2ccnc2)c2ccc(Cl)c(Cl)c2n1 [I-845] ?
Output: > 5.70

Task: Input FC(F)(F)[C@@H]1CCCN1c1cc(-n2ccnc2)c2ccc(Cl)c(Cl)c2n1 [I-496]
Output: 4.52 to 5.70

Task: Input COC(=O)[C@@H]1CC2(CC2)CN1c1cc(-n2ccnc2)c2ccc(Cl)c(Cl)c2n1 [I-582]
Output: > 5.70

Task: Input CN(CCS(=O)(=O)N1CCCC1C(=O)O)c1cc(-n2ccnc2)c2ccc(Cl)c(Cl)c2n1 (stereo not drawn) [I-626]
Output: > 5.70

Task: Input O=C(O)c1ccc(S(=O)(=O)NC[C@@H]2CCCN2c2cc(-n3ccnc3)c3ccc(Cl)c(Cl)c3n2)cc1 [I-640]
Output: > 5.70

Task: Input COC(=O)CCO[C@@H]1CCN(c2cc(-n3ccnc3)c3ccc(Cl)c(Cl)c3n2)C1 [I-769]
Output: 4.52 to 5.70

Task: Input O=C(O)CCCCCNc1cc(-c2cn[nH]c2)c2ccc(Cl)c(Cl)c2n1 [I-830]
Output: > 5.70

Task: Input O=C(O)[C@@H]1C[C@@H](O)CN1c1cc(-n2ccnc2)c2ccc(Cl)c(Cl)c2n1 [I-514]
Output: > 5.70

Task: Input O=C(O)CCC[C@@H]1CCCN1c1cc(-n2ccnc2)c2ccc(Cl)c(Cl)c2n1 [I-682]
Output: > 5.70

Task: Input O=C(O)C1CCCN(C(=O)C[C@@H]2CCCN2c2cc(-n3ccnc3)c3ccc(Cl)c(Cl)c3n2)C1 (stereo partly drawn) [I-530]
Output: > 5.70

Task: Input NS(=O)(=O)CC1CCCN1C(=O)C[C@@H]1CCCN1c1cc(-n2ccnc2)c2ccc(Cl)c(Cl)c2n1 (stereo partly drawn) [I-534]
Output: 4.52 to 5.70

Task: Input O=C(O)COC[C@@H]1C[C@H](F)CN1c1cc(-n2ccnc2)c2ccc(Cl)c(Cl)c2n1 [I-706]
Output: > 5.70

Task: Input O=C(O)CCOCC1CC(O)CN(c2cc(-n3ccnc3)c3ccc(Cl)c(Cl)c3n2)C1 (stereo not drawn) [I-748]
Output: > 5.70

Task: Input O=C(O)Cc1cccc(OC[C@@H]2CCCN2c2cc(-n3ccnc3)c3ccc(Cl)c(Cl)c3n2)c1 [I-736]
Output: > 5.70

====

# Experimental Target: recombinant human cGAS (aa147-522) (Homo sapiens)
# Construct: recombinant human cGAS (aa147-522); His6-SUMO (cleaved yes); made in house; host or cells: E. coli BL21/pLys
# Procedure Summary: In vitro inhibition assay of cGAS activity (ATP consumption, KinaseGlo Max)
# Format: biochemical
# Conditions Used: Table 2, read-out: cGAS Inhibition Results IC50
pIC50: −log10 of the molar value.
Quantity Name: pIC50

Worked examples, 8 compounds total:
>  <Compound>
Cc1cc(N2CCCNC(=O)C2)c2ccc(Cl)c(Cl)c2n1

>  <pIC50>
< 4.52

$$$$
>  <Compound>
O=C(O)[C@@H]1CCCN(c2cc(-n3ccnc3)c3ccc(Cl)cc3n2)C1

>  <pIC50>
4.52 to 5.70

$$$$
>  <Compound>
CN(CCC(=O)O)C(=O)C[C@@H]1CCCN1c1cc(-n2ccnc2)c2ccc(Cl)c(Cl)c2n1

>  <pIC50>
> 5.70

$$$$
>  <Compound>
Clc1ccc2c(-n3ccnc3)cc(N3CCC(c4nn[nH]n4)C3)nc2c1 (stereo not drawn)

>  <pIC50>
4.52 to 5.70

$$$$
>  <Compound>
Clc1ccc2c(-c3cn[nH]c3)cc(NCCN3CCOCC3)nc2c1Cl

>  <pIC50>
4.52 to 5.70

$$$$
>  <Compound>
O=P(O)(O)CC1CCCN(c2cc(-n3ccnc3)c3ccc(Cl)c(Cl)c3n2)C1 (stereo not drawn)

>  <pIC50>
4.52 to 5.70

$$$$
>  <Compound>
CN(CCC(=O)NCC(N)=O)c1cc(-c2cn[nH]c2)c2ccc(Cl)c(Cl)c2n1

>  <pIC50>
> 5.70

$$$$
>  <Compound>
O=C(O)C1CCCN(c2cc(-n3ccnc3)c3ccc(Cl)cc3n2)C1 (stereo not drawn)

>  <pIC50>
4.52 to 5.70

$$$$

Task: Any idea what pIC50 was measured for "COC(=O)c1ccc(-c2cc(-n3ccnc3)c3ccc(Cl)cc3n2)cc1" ?
Output: < 4.52

====

Attribute: IC50
# Test system: cGAS activity in Reporter THP1 cell line
# Procedure Summary: Cellular assay to measure cGAS activity: ISRE-Gaussia luciferase reporter THP1 cells transfected with ISD
# Assay type: cell-based
# Conditions Used: Homo sapiens, THP-1, Table 4, Gaussia luciferase
# Protocol: Cellular assay to measure cGAS activity: Reporter THP1 cell line harboring a gene encoding Gaussia Luciferase under the control of 5 tandem repeats of interferon-stimulated response elements (ISRE) fused to an ISG54 minimal promoter was used to test inhibition of cGAS activity by synthetic compounds in human cells. […] Fold increase in luminescence compared to mock transfection was plotted against concentrations of each compound, and IC50 is calculated using Graphpad. […]

>  <Compound>
O=C(O)CCOC[C@H]1CCCN(c2cc(-n3ccnc3)c3ccc(Cl)c(Cl)c3n2)C1 [I-745]

>  <Experimental Target>
cGAS activity in Reporter THP1 cell line

>  <IC50>
< 2 µM

$$$$
>  <Compound>
O=C(O)COC[C@H](O)[C@@H]1CCCN1c1cc(-n2ccnc2)c2ccc(Cl)c(Cl)c2n1 [I-726]

>  <Experimental Target>
cGAS activity in Reporter THP1 cell line

>  <IC50>
> 10 µM

$$$$
>  <Compound>
O=C(O)CCOCC1CC(F)CN(c2cc(-n3ccnc3)c3ccc(Cl)c(Cl)c3n2)C1 (stereo not shown) [I-749]

>  <Experimental Target>
cGAS activity in Reporter THP1 cell line

>  <IC50>
< 2 µM

$$$$

Pending compound:
Task: Could you share what IC50 was measured for O=C(O)CCOC[C@@H]1[C@@H](O)CCN1c1cc(-n2ccnc2)c2ccc(Cl)c(Cl)c2n1 [I-698] , tested on cGAS activity in Reporter THP1 cell line?
Output: > 10 µM

====

# Experimental Target: recombinant human cGAS (aa147-522) (Homo sapiens)
# Construct: recombinant human cGAS (aa147-522); His6-SUMO (cleaved yes); made in house; host or cells: E. coli BL21/pLys
# Procedure Summary: In vitro inhibition assay of cGAS activity (ATP consumption, KinaseGlo Max)
# Type: biochemical
# Conditions Used: Table 2, read-out: cGAS Inhibition Results IC50
pIC50: −log10 of the molar value.
Attribute: pIC50

Worked examples, 5 molecules total:
>  <Molecule>
Cc1cc(NCCO)c2ccc(Cl)c(Cl)c2n1 [I-304]

>  <pIC50>
< 4.52

$$$$
>  <Molecule>
OC[C@@H]1CCCN1c1cc(-c2cn[nH]c2)c2ccc(Cl)c(Cl)c2n1 [I-138]

>  <pIC50>
> 5.70

$$$$
>  <Molecule>
O=C(O)C1(O)CCCN(c2cc(-n3ccnc3)c3ccc(Cl)c(Cl)c3n2)C1 (stereo not shown) [I-124]

>  <pIC50>
> 5.70

$$$$
>  <Molecule>
O=C(O)[C@@H]1CN(c2cc(-n3ccnc3)c3ccc(Cl)cc3n2)CC[C@H]1O [I-130]

>  <pIC50>
4.52 to 5.70

$$$$
>  <Molecule>
O=[PH](O)OC1CCCN(c2cc(-n3ccnc3)c3ccc(Cl)c(Cl)c3n2)C1 (stereo not shown) [I-111]

>  <pIC50>
> 5.70

$$$$

Task: Could you share what pIC50 was measured for O=C(O)C1CN(c2cc(-n3ccnc3)c3ccc(Cl)c(Cl)c3n2)CCN1CCO (stereo not shown) [I-81] , tested on recombinant human cGAS (aa147-522) (Homo sapiens)?
Output: > 5.70

Task: Input O=C(O)CC1CCN(c2cc(-n3ccnc3)c3ccc(Cl)cc3n2)C1 (stereo not shown) [I-446]
Output: 4.52 to 5.70

Task: Input Cc1nccn1-c1ccnc2ccccc12 [I-411]
Output: < 4.52

Task: Input NS(=O)(=O)c1cccc(-c2cc(-n3ccnc3)c3ccc(Cl)c(Cl)c3n2)c1 [I-46]
Output: > 5.70

Task: Input O[C@@H]1CCCN(c2cc(-n3ccnc3)c3ccc(Cl)c(Cl)c3n2)C1 [I-134]
Output: 4.52 to 5.70
